Target: Q150A mutant mouse 5-HT3ASR (Mus musculus, UniProt P23979, Q151A)
Test: biochemical
observation.type: pKi
Scale explanation: pKi corresponds to minus log10 of a concentration expressed in moles per litre.

compound	pKi
COc1cc2c3cc1Oc1cc(ccc1O)C[C@@H]1c4c(cc(OC)c(O)c4Oc4ccc(cc4)C[C@@H]3N(C)CC2)CC[N+]1(C)C [d-tc, d-tubocurarine]	8.03

Form field: reported pKi of c1ccc(Cn2c(N3CCNCC3)nc3ccccc32)cc1 [lerisetron]
8.96

---

Target: H145A mutant mouse 5-HT3ASR (Mus musculus, UniProt P23979, H146A)
Test: biochemical
observation.type: pKi
Scale explanation: pKi corresponds to minus log10 of a concentration expressed in moles per litre.

c1ccc(Cn2c(N3CCNCC3)nc3ccccc32)cc1 9.38

Would you kindly look at the next entry?
Form field: reported pKi of `COc1cc2c3cc1Oc1cc(ccc1O)C[C@@H]1c4c(cc(OC)c(O)c4Oc4ccc(cc4)C[C@@H]3N(C)CC2)CC[N+]1(C)C`
7.72

---

Target: Y142A mutant mouse 5-HT3ASR (Mus musculus, UniProt P23979, Y143A)
Sequence (P23979 24-483 isoform P23979-2 Y143A): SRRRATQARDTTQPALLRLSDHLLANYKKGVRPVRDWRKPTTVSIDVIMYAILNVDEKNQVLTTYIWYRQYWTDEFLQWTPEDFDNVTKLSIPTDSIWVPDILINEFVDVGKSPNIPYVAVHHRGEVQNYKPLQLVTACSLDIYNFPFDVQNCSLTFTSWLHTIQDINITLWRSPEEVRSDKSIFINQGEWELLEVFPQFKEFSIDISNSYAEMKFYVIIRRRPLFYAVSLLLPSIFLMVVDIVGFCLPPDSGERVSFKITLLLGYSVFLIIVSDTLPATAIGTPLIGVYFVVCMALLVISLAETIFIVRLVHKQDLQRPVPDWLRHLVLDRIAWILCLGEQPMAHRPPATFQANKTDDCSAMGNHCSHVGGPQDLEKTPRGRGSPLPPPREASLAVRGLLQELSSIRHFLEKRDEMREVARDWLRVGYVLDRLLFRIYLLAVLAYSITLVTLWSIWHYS
Assay: Inhibition of [^3H]granisetron binding, Y142A receptor
observation.type: Ki (nM)
Please reply with the bare figure in nM and do not write the unit itself.

compound	Ki / nM
c1ccc(Cn2c(N3CCNCC3)nc3ccccc32)cc1 [lerisetron]	130

Form field: reported Ki of COc1cc2c3cc1Oc1cc(ccc1O)C[C@@H]1c4c(cc(OC)c(O)c4Oc4ccc(cc4)C[C@@H]3N(C)CC2)CC[N+]1(C)C [d-tc, d-tubocurarine]
39

---

Molecular target: wildtype mouse 5-HT3ASR (Mus musculus, UniProt P23979)
Sequence (P23979 24-483 isoform P23979-2 limits assumed): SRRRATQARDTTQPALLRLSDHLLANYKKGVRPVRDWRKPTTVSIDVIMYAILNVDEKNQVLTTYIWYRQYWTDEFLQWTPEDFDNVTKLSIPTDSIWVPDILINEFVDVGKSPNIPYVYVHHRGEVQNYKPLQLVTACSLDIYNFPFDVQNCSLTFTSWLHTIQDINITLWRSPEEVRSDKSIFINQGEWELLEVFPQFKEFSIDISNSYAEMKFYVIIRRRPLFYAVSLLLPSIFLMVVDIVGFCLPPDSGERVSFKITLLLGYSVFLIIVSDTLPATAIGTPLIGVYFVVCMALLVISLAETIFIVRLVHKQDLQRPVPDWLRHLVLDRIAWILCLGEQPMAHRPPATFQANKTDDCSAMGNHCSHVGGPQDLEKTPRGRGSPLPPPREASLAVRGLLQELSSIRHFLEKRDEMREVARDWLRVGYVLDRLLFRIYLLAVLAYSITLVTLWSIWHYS
Assay: biochemical
Item-by-item account of pKi
Scale explanation: pKi corresponds to minus log10 of a concentration expressed in moles per litre.

COc1cc2c3cc1Oc1cc(ccc1O)C[C@@H]1c4c(cc(OC)c(O)c4Oc4ccc(cc4)C[C@@H]3N(C)CC2)CC[N+]1(C)C 8.22

Item: `c1ccc(Cn2c(N3CCNCC3)nc3ccccc32)cc1` Test system: wildtype mouse 5-HT3ASR (Mus musculus, UniProt P23979) Read-out: pKi Value: ?
9.10

---

Molecular target: Y152A mutant mouse 5-HT3ASR (Mus musculus, UniProt P23979, Y153A)
Test: Inhibition of [^3H]granisetron binding, Y152A receptor
Item-by-item account of pKi
Scale explanation: pKi corresponds to minus log10 of a concentration expressed in moles per litre.

c1ccc(Cn2c(N3CCNCC3)nc3ccccc32)cc1 6.82

Would you kindly look at the next entry?
Form field: reported pKi of `COc1cc2c3cc1Oc1cc(ccc1O)C[C@@H]1c4c(cc(OC)c(O)c4Oc4ccc(cc4)C[C@@H]3N(C)CC2)CC[N+]1(C)C`
7.22

---

Target: R146A mutant mouse 5-HT3ASR (Mus musculus, UniProt P23979, R147A)
Test: biochemical
Item-by-item account of pKi
Scale explanation: pKi corresponds to minus log10 of a concentration expressed in moles per litre.

c1ccc(Cn2c(N3CCNCC3)nc3ccccc32)cc1 8.64

Would you kindly look at the next entry?
Form field: reported pKi of `COc1cc2c3cc1Oc1cc(ccc1O)C[C@@H]1c4c(cc(OC)c(O)c4Oc4ccc(cc4)C[C@@H]3N(C)CC2)CC[N+]1(C)C`
7.54

---

Molecular target: E148A mutant mouse 5-HT3ASR (Mus musculus, UniProt P23979, E149A)
Experiment: biochemical
Item-by-item account of Ki
Please reply with the bare figure in nM and do not write the unit itself.

molecule	Ki, nM
COc1cc2c3cc1Oc1cc(ccc1O)C[C@@H]1c4c(cc(OC)c(O)c4Oc4ccc(cc4)C[C@@H]3N(C)CC2)CC[N+]1(C)C [d-tc, d-tubocurarine]	14

Form field: reported Ki of c1ccc(Cn2c(N3CCNCC3)nc3ccccc32)cc1 [lerisetron]
2.8

---

Molecular target: Y140A mutant mouse 5-HT3ASR (Mus musculus, UniProt P23979, Y141A)
Experiment: Inhibition of [^3H]granisetron binding, Y140A receptor
observation.type: pKi
Scale explanation: pKi corresponds to minus log10 of a concentration expressed in moles per litre.

COc1cc2c3cc1Oc1cc(ccc1O)C[C@@H]1c4c(cc(OC)c(O)c4Oc4ccc(cc4)C[C@@H]3N(C)CC2)CC[N+]1(C)C 6.52

Form field: reported pKi of `c1ccc(Cn2c(N3CCNCC3)nc3ccccc32)cc1`
8.68

---

Target: V143A mutant mouse 5-HT3ASR (Mus musculus, UniProt P23979, V144A)
Test: biochemical
Item-by-item account of pKi
Scale explanation: pKi corresponds to minus log10 of a concentration expressed in moles per litre.

COc1cc2c3cc1Oc1cc(ccc1O)C[C@@H]1c4c(cc(OC)c(O)c4Oc4ccc(cc4)C[C@@H]3N(C)CC2)CC[N+]1(C)C 7.66

Would you kindly look at the next entry?
Item: `c1ccc(Cn2c(N3CCNCC3)nc3ccccc32)cc1` Test system: V143A mutant mouse 5-HT3ASR (Mus musculus, UniProt P23979, V144A) Read-out: pKi Value: ?
8.82
